Data origin: ChEMBL document CHEMBL5108044

system: UniProtKB P00533
Sequence (P00533 whole entry): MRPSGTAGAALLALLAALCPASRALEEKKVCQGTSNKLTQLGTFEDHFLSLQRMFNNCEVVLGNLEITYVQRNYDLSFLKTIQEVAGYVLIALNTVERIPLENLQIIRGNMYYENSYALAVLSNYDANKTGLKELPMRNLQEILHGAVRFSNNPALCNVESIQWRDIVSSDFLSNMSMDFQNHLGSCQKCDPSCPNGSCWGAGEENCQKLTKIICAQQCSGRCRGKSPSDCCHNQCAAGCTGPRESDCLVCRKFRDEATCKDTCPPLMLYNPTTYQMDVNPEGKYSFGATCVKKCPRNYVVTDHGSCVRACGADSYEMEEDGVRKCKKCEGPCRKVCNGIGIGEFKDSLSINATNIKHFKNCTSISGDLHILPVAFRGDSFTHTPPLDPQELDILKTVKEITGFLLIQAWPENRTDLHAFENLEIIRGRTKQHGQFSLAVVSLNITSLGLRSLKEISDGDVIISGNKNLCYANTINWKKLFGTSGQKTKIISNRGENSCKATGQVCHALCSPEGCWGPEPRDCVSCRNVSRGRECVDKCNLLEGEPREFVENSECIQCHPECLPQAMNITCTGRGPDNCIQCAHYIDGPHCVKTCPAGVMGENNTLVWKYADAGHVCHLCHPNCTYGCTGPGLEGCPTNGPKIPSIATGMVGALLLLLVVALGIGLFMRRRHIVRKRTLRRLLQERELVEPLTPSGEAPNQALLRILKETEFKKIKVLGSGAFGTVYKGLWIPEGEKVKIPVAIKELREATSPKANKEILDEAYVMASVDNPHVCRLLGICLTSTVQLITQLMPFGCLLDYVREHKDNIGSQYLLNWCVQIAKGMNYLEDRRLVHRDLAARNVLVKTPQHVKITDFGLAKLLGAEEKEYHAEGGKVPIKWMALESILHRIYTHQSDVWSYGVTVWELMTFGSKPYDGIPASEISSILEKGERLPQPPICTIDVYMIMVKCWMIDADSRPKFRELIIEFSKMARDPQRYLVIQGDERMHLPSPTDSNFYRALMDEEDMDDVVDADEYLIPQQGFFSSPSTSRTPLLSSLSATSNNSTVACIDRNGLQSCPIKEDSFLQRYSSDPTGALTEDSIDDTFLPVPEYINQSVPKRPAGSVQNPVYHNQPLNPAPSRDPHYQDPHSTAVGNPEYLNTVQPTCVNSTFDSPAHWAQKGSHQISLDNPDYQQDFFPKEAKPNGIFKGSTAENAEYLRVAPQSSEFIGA
value.kind: IC50

For UniProtKB P00533, provide IC50 of O=C(c1ccc(-c2noc(-c3ccc(C(F)(F)F)cc3)n2)cc1)N1CCN(Cc2ccc(OCC(F)(F)F)cc2)CC1 please.
> 10 µM

====

protocol.text: Cmax in ICR mouse plasma at 1 mg/kg, iv measured up to 24 hrs by LC-MS/MS analysis
Assay type: ADME, organism-based
Set-up: time < 24 hrs, dose 1 mg/kg, route iv
value.kind: Cmax (ng/mL)
Answer in ng/mL, number only, no unit symbol.

I have this compound here, O=C(c1ccc(-c2noc(-c3ccc(C(F)(F)F)cc3)n2)cc1)N1CCN(Cc2ccc(OCC(F)(F)F)cc2)CC1 , and I need its recorded Cmax.
666
